Data origin, for the record: the supplement of paper PMC9112550

System: Escherichia coli TOP10;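 further: peptides expressed intracellularly from a pBAD plasmid library in pooled LB shake-flask culture, induced with 0.3% L-arabinose, DNA abundance read by NGS, three biological replicates, DESeq2 with apeglm shrinkage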
PROTOCOL DETAILS: shrunken log2 fold change of peptide-encoding DNA abundance (4.5 h post-induction vs induction); higher = less antimicrobial activity (less host growth inhibition)
CONDITION DESCRIPTION: time post-induction: 4.5 h; library: site-saturation at positions 5, 18, 19, 20
Assign yes (1) whenever shrunken log2 fold change does not fall below -0.05; assign no (0) whenever it does.

Solved entries (count: 5):
CHAIN SEQUENCE	CLASS NAME
RRIRLRPPRLPRPRPRPNSMPRP	yes (1)
RRIRTRPPRLPRPRPRPMMHPRP	no (0)
RRIRTRPPRLPRPRPRPGSYPRP	yes (1)
RRIRFRPPRLPRPRPRPYDNPRP	no (0)
RRIRWRPPRLPRPRPRPMGVPRP	yes (1)

# check: shrunken log2 fold change of RRIRTRPPRLPRPRPRPAQRPRP is greater than or equal to -0.05
yes (1)

Does the sequence RRIRGRPPRLPRPRPRPEKAPRP have recorded shrunken log2 fold change that is -0.05 or more?
yes (1)

Reported shrunken log2 fold change at or above -0.05? RRIRGRPPRLPRPRPRPNKRPRP
yes (1)
